Record form. Attribute: IC50. Fill in for each entry.
Biological target: receptor tyrosine kinase (Homo sapiens, UniProt P00533)
Construct: Receptor tyrosine kinase was obtained in partially purified form from A-431 cells; endogenous in cells
Sequence (P00533 25-1210): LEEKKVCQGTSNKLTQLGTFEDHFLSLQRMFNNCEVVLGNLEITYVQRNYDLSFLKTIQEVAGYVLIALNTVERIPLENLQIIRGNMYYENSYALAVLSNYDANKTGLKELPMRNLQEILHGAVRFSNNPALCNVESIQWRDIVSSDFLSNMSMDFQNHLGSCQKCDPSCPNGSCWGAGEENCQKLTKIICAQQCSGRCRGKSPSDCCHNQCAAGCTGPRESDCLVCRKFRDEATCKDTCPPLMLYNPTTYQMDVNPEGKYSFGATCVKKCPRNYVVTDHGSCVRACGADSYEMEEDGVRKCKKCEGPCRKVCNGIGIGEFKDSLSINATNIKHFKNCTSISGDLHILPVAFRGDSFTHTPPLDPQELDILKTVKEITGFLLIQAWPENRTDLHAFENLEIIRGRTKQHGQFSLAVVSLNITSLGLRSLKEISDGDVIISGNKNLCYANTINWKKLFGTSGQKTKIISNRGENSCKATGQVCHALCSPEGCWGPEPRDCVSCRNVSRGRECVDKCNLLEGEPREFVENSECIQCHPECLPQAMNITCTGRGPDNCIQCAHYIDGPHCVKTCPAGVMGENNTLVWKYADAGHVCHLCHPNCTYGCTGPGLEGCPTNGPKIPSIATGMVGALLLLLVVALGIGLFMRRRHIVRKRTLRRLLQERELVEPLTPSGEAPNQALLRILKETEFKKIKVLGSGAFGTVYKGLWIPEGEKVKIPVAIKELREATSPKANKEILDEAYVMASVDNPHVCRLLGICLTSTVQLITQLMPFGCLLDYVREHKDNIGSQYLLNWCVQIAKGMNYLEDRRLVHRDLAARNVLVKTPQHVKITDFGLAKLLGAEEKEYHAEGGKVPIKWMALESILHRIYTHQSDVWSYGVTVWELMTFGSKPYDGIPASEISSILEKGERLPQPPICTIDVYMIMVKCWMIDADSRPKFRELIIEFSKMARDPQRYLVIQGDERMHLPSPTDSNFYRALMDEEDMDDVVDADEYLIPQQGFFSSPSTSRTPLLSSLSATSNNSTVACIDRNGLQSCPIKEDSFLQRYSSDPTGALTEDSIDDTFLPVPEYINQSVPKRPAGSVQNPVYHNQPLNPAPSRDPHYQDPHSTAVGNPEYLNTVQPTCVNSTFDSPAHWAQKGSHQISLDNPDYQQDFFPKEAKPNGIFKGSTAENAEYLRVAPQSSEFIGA
Sequence (P01133 971-1023 partner limits assumed): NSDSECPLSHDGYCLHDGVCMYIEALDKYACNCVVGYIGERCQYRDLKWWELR
Test: in vitro inhibition of the enzyme receptor tyrosine kinase (Test (a))
Conditions: enzyme from A-431 cells, EGF stimulated
Give bare numbers, in nM.

Here are 3 molecules. What values of IC50 were reported for them?
1. Cc1cccc(Nc2ncnc3cc(F)c(NC(=O)CCl)cc23)c1
2. COc1cc2c(Nc3ccc(F)c(Cl)c3)ncnc2cc1F
3. Cc1cccc(Nc2ncnc3cc(F)c(N)cc23)c1

Marked response:
[10, 70, 75]

All values here come from patent US5475001A.
